- Run description: soluble on expression in E. coli; label from the status in PepcDB or PDB records
Readout label: soluble on expression in E. coli

Examples from the recorded data:
[[record]]
sequence_code = "AMNLIFLGTSAGVPTRTRNVTAILLNLQHPTQSGLWLFDCGEGTQHQLLHTAFNPGKLDKIFISHLHGDHLFGLPGLLCSRSMSGIIQPLTIYGPQGIREFVETALRISGSWTDYPLEIVEIGAGEILDDGLRKVTAYPLEHPLECYGYRIEEHDAPGALNAQALKAAGVPPGPLFQELKAGKTITLEDGRQINGADYLAAPVPGKALAIFGDTGPCDAALDLAKGVDVMVHEATLDITMEAKANSRGHSSTRQAATLAREAGVGKLIITHVSSRYDDKGCQHLLRECRSIFPATELANDFTVFNV"
measurement = "soluble"

[[record]]
sequence_code = "MGSDKIHHHHHHMLSRVAENLYWMARYLERTEDMARLINATTLLLLDLPQGAEFGWDILLQVTGDAKLYMEHYGTPEEGRIMRFLIADERNPNSVMAAIHQARENCRTFRDLLPAEFWERLNTLFLFVREHAGTSSDSRHARYAFLNEVISRRHALVGLLISSMSQDNVYQFIKLGRNMERADMTTRIVDVTSAVILPQDQGLQKTTTSSLWLGVLRALSAFEMYRRHVSVQVRSNQVVDYLLKDNKFPRSMKYCLGEMEVALAYLPNAGIPAEAVRRARRRLDALKLANLRPDLLHEYLDQAQKDLAMVHRTIHGTYFARDDTGFDGVPSGLLLNAAQA"
measurement = "not soluble"

[[record]]
sequence_code = "MHTNMWVVDNVVERKKYYPQLQEAAKLLRENEAIAFPTETVYGLGANAMNDEAIAKIFEAKGRPSDNPLIVHIGTKSQLDGIVKEIPPVAEKLMEHFWPGPLTIILPRKEGISEKVTAGLHTVGVRMPDHPVALALIEEANVPVAAPSANRSGRPSPTLASHVYEDLNEKIAGIVDGGATGVGVESTVIDCTSAVPTILRPGGITKEQLEAVIGTVSLDPALKDEKEKPKSPGMKYTHYAPKAPLSIVEGSREFIQRLVDEKKEEGFKVGVLTTEEYHHIYNADVVLSCGVRSDLASVATKLYDVLRTFDASEVDVIFSESFPNEGIGNAIMNRLTKAAGHHIITE"
measurement = "not soluble"

[[record]]
sequence_code = "MSTTKKGDTYNEAWVKDTNGFDILMGQFAHNIENIWGFKEVVIAGPKDYVKYTDQYQTRSHINFDDGTITIETIAGTEPAAHLRRAIIKTLLMGDDPSSVDLYSDVDDITISKEPFLYGQVVDNTGQPIRWEGRASNFADYLLKNRLKSRSNGLRIIYSVTINMVPNHLDKRAHKYLGMVRQASRKYGVDESLILAIMQTESSFNPYAVSRSDALGLMQVVQHTAGKDVFRSQGKSGTPSRSFLFDPASNIDTGTAYLAMLNNVYLGGIDNPTSRRYAVITAYNGGAGSVLRVFSNDKIQAANIINTMTPGDVYQTLTTRHPSAESRRYLYKVNTAQKSYRRRLEHHHHHH"
measurement = "soluble"


API: the following record is the query input.
GET /value?item= MSYYHHHHHHLESTSLYKKAGLVQRITIAPQGPEFSRFVMGYWRLMDWNMSARQLVSFIEEHLDLGVTTVDHADIYGGYQCEAAFGEALKLAPHLRERMEIVSKCGIATTAREENVIGHYITDRDHIIKSAEQSLINLATDHLDLLLIHRPDPLMDADEVADAFKHLHQSGKVRHFGVSNFTPAQFALLQSRLPFTLATNQVEISPVHQPLLLDGTLDQLQQLRVRPMAWSCLGGGRLFNDDYFQPLRDELAVVAEELNAGSIEQVVNAWVLRLPSQPLPIIGSGKIERVRAAVEAETLKMTRQQWFRIRKAALGYDVP &field=soluble on expression in E. coli returns soluble
